Please go through the items and note down their GI50.
system: M14; assay: NCI tumour cell line growth inhibition, 48 h
Calls of active or inactive are those of the source. Rule as the data show it: active = GI50 up to about 1.1 µM and inactive = higher.

Summary: COc1ccccc1NC(=O)C1=C(C)NC(C)=C(C(=O)Nc2ccccc2OC)C1c1cccc2ccccc12 , M14, GI50 = > 100 µM (inactive)

Summary: CC1CN(c2ccc(Cl)cc2)CC(C)(C)OC(=O)O1 (configuration not stated) , M14, GI50 = > 100 µM (inactive)

Summary: Cc1ccc(C)c(NC(=O)C(=O)CC(=O)C2CCOC2=O)c1 (configuration not stated) , M14, GI50 = > 100 µM (inactive)

Summary: Cc1cccc(C)c1NC(=O)CCc1nnc(S)[nH]1 , M14, GI50 = > 100 µM (inactive)

Summary: O=C(/C=C/c1ccccc1O)/C=C/c1ccccc1O , M14, GI50 = 1.71 µM (inactive)

Summary: CC1=NN2C(=N)/C(=C/c3ccco3)C(=O)N=C2S1 , M14, GI50 = > 100 µM (inactive)

Summary: COc1ccc(CC2(Cc3ccc(OC)cc3)CCOC2=O)cc1 , M14, GI50 = > 100 µM (inactive)

Summary: COC1OC(C(C)O)C2OC(C)(C)OC12 (configuration not stated) , M14, GI50 = > 100 µM (inactive)

Summary: CCOC(=O)N1CCN(C=S)CC1 , M14, GI50 = > 100 µM (inactive)

Summary: O=Nn1c2ccccc2c2ccccc21 , M14, GI50 = 74.1 µM (inactive)

Summary: O=C(ON=c1c2ccccc2ccc2ccccc12)c1cc([N+](=O)[O-])cc([N+](=O)[O-])c1 , M14, GI50 = > 100 µM (inactive)

Summary: O=C(O)CSC1=NCCN1 , M14, GI50 = > 100 µM (inactive)
